- protocol description: label from the status in PepcDB records
assay readout: protein production

item_sequence=MGKKQKMKKAAQMATAAEKLKTAAEKSKTAADNVVAKEKPAEEASPSPSGSGKKGKPKATQKPNVAKALQKEISSSEDALDVKNKPPAGFSGAKGKPHIMGQMDPAYRNKIKKLMSLAKQLPPNVFSLPNSQKEEGASAAKSCVVEDDQSTDSDDAPDLVEADPKETQPDEQGQLGTVAVRTREVSKQSRGERKARRILMKLDLKPMENVARVTMKKGKNILLYIDQPDVYRVAHSSTYIFFGEICVEDTSTTSVASQAAVKAAERFRGTSPAGRQGNEDGKAPGEESPHDDDDDENDGEDADAMGLHAKDIELVQMQAACSRKKAIQALLKNDNDVVNAIMALTVG experimental_result=failed
item_sequence=MSERPVQSKLNNALNILKQGDLRGSYAELERLLRDDLENAEIDYTLKGVRFWEDKLEKAKKASTPLERAEMMISQWKPFLAYIHRQGEEKESIIYSLKCAVFTIALEFYADLFNEESELPDAEPYRKIGLCYKVLGNYERALDFLRYAAEIDKNSGSVLADLADCYALYGEIKFAKAFFREAFFIDPEGIELQFLESEIICRLINRVYNLGYRVEDIADWLPIYGVIDGVFNVKRELRAFEVGQLKQNIFLMEGEVQNASQEQKHKLVPRLINHYFWLIDHYVSVNESKSKIDDLLLRIKVLDQNIYNCYMR experimental_result=failed
item_sequence=MIRQKSIRRVKPPEDYQARLATPFAVLGLRTDEDWLTDIEYLPPDTPTLVPQTPLAREVCDQLQAYLADPGFVFDLSLHIGGTVHQRRVWQAIQDIPAGATRSYAAIAVELHSAPRAVGQACGANRLPIVIPCHRVIAKSGGLGGFMNASDGLPLTIKRWLLQHEGI experimental_result=failed

====

- protocol description: label from the status in PepcDB records
assay readout: protein production

item_sequence=HALAERDRPLPTHLVLSGRMPPHTGYSPLLGAMDDNQLWQHVCSESLLPLPTDASCSFARHALGKLKADLALNAQLTYRFIRPLPVPLYVLNGQDDPLLELHRLDEWQRYTSTSFHSEYVPGGHFFFNINFQLLYLPLLTALD experimental_result=failed
item_sequence=MNALKNLSLILLLSLAFTGCHNKSSKINDFNLLLYAPEYASGFDIKGAGGKESVLITVRNPWQGADSVTTWLFIVRNGEEVPEGFAGQVLKGDAKRIVAMSSTHIAMLDAIGEVRCITGVSGIDYISNPDIQARRDSIGDVGYEGNINYELLLSLDPDLVLLYGVNGASAMESKLEELDIPFMYVGDYLEESPLGKAEWMVVLSEVTGKREKGEKAFAAIPVRYNALKKKVADSTLGTPSVMLNVPYGDSWFMPSTQSYVARLITDAGGRYIYQKNTGNASIPIDLEEAYLLASDADMWLNVGMANSLDDLKASCPKFTDTRCFKNGEVYNNNARTNTAGGNDYYESAVVNPDIVLRDLVKIFHPELVQEECVYYKQLK experimental_result=failed
item_sequence=MAIDVCCSEASGSGISPRISFSYDLDSTDDGEVRLDSTLLDSGSEFDFCFGSSCSVQEVSPADELFSEGKILPVQIKKEESLPQTVTFRVPRSASLSSSSSSSSSSSSSSRAPEKKMRLKELLLNPESDFEDKPRGLFLQFKRSISLNYDKSRNSKGLIRSFHFLSRSNSTPNPNLDLLPKETHHPHKTHNLPKHKPPLRRSSSLSSSSVPFYSKKPLGRNSFGNGNGGVRVSPVLNFPPPAFISNVADGFFSIGSLCNGKTNTKTKL experimental_result=failed
item_sequence=MLFTNLDGVRNVVPVGHRQRRARPVGAGDVRAEKSLRYHLQEHGRLPLNEAVAVLSDVAEALADLKDREIVHRDLKPENILLLGGRRCLADFGIARYAEATIAKHTLKLAGTLAYMAPERWNNQRAASASDIYAPGVVAYELLEETPPFTGPYEHDYHDQHLHGPVRPSPQLRPSWRR experimental_result=failed
item_sequence=MNTHLKQLIEISHLDKEIDSLEPLIREKRKDLDKALNDKEAKNKAILNLEEEKLALKLQVSKNEQTLQDTNTKIASIQKKMSEIKSERELRSLNIEEDIAKERSNQANREIENLQNEIKHKSEKQEDLKKEMLELEKLVQQLESLVENEVKNIKETQQIIFKKKEELVEKTEPKIYSFYERIRRWAKNTSIVTIKKQACGGCFIRLNDKIYTEVLTSGDMITCPYCGRILYAEG experimental_result=failed
item_sequence=IHNSRWIMTPEVKEDCKMRLFCLPFAGGGALAYRSWCRYMPPEIELCAVQLPGRENRIKDEKFYDINLLIDELVLQILPYLDKPFALYGHSMGGLISFELARRIRKVKGLTPKILFFSGSKAPQLYDHTKDISHLPDELFLKAIKSFNGMPDMFWQDRELIEFKLPTLRADFSVLEGYNYYNEEPLECPISALCGENDKIISKKDMEALALQTKNQFKLRMFDGDHFFINTCRSKVLKSIIEDLN experimental_result="not failed"
item_sequence=MARVAIPSVGKDLSSMVSDRFARAEYFIIYDTESGNVEVVENTIADAHGTGPKVVQSLVSKGVEYLIASNVGRNAFETLKAAGVKVYRFEGGTVQEAIDAFSEGRLEELTTFTREG experimental_result="not failed"
